# test name: soluble on expression in E. coli; label from the status in PepcDB or PDB records
measured property: soluble on expression in E. coli

INPUT: # get_value(readout='soluble on expression in E. coli', item= MQTLLLALFSLAMVQAMRDQSIAVKGRLICGDKPAANVRIKLWEEDSGPDPDDLLEAGYTDSNGEFQLSGGEAELTPIDPIFKVYHDCDDKYIPGHRKVKFLIPKSYITQGKTPKKTFDLGVLNLETIFPKEERELIVSRKRRHHPKQYINEEDSF )
OUTPUT: not soluble

INPUT: Quick one: soluble on expression in E. coli of MADDFKTAQMNNPHLRNYVEKFKKTYMKVPEFVPSLSRDFKEIKYPNIIYPIGDPIFIHLYGTPNLKTRYIAIEPKLNGSEERKKYFDILDKILEYAPYSDIPENDEEFGKVVTKLFDMVAK ?
OUTPUT: not soluble

INPUT: Query (sequence): MSSETLEFSGCNFFRIRLAYSILSGRPIRIINIRKNDDRPGIRDFESKLIGLLEKVTNGTKVEISRTGTQVIFRPGMITGGVVNLDCGTERCISYFLEPLLLLSPFCKVPMVIKLKGVTNAPGEISVDGMKASWLKVYNKFVLNDEKLDIKIQARGLKPEGGGVVVFTAPIVKTLRPVKRQQVGKVCKIRGQAYVTKVTPSLAYRMIDAAKKAMHGYISDVYITVDQRKGDAGGASPGYGLFLTAETTEGVIYQAEAISRPKGESGVPILPEDIGIEAGHALLQQIYMGGALDSSAQILASTFMTLCPKDVSHFLYGPLPMYSVHALRHLKQFFEIEFKMEDFKKTLKEEEADLKTGSADKAMVTAVGVGYSNLNKTIL ; field requested: soluble on expression in E. coli
OUTPUT: not soluble

----------
# test name: soluble on expression in E. coli; label from the status in PepcDB or PDB records
measured property: soluble on expression in E. coli

INPUT: Quick check: soluble on expression in E. coli of MTPRIIVTDMDGTLLNSEHEIPARFWPLLDEMHEQGIVFAPASGRQLYTLLDQFAQAGKDLSVIAENGTVVYHEGEIISVTTIDPEVAHRVIRTMAHSDLDWGVVVCRVDGAFIARGDVEFLTETVRYYAKLDVVDDLHSVVNDQVIKLAIYSFPDAETVAAPALAESVGDHTLAISGAHWIDIMSPHANKGVALQQLADNLGVPIEHTAAFGDYLNDYELLHTAGTAYAMSNAHPDIKDIADHVVGSNDEESVLTTIHSLLTAAK ?
OUTPUT: not soluble

INPUT: # get_value(readout='soluble on expression in E. coli', item= MERLQKVIARAGIASRRKAEELILQGRVKVNGRVVKELGVKVGPRDDVEVDGIPIEREEPVYYLLYKPRGVISSVKDDRGRKVVTDFFKDLDKRIYPIGRLDYDTSGLLLLTNDGDFANLLMHPRYEIEKVYIAKVKGIPTHEQLKRLEQGVQLEDGMTAPAKVKLLSADRKKGTAIVEIRIHEGRNRQVRRMFEAIGCEVLKLKRERYAFLDLKGLRPGEYRELTPHEVKLLRVLAQSGGRK )
OUTPUT: soluble

INPUT: Quick check: soluble on expression in E. coli of MGSDKIHHHHHHAISVGNLTFSLPAEADFASKRVVNNNKSARLYRIAVSAIDRPGGSEVRSRPVDGELLFAPRQLVLQAGESEYFKFYYHGPRDNRERYYRVSFREIPTRNLTRRSPTGGEVSMEPVVVMDTILVVRPREVQFKWSFDKVAGTVSNTGNTWFKLLIKPGCDSTEEEGDAWYLRPGDVVRQPALRQPGNHYLVYNDKFIKISDTCPLKPRPAE ?
OUTPUT: not soluble

INPUT: Reported soluble on expression in E. coli for MPILNLNNFLAALGNTPDYGRLFARAEHLAQVQKHLLNAVPFQLRNQCTVGQYTADGLLVIYAGNGTTATRLRHLAPSIRQKMNNAGVKVENIRFSIQPQLHSLESGNVREITRSLSQTAIEHLDKLSDSLPAGSPLQSSLAALLANSRRK : what is it?
OUTPUT: not soluble

INPUT: // returns reported soluble on expression in E. coli for input MDNYQEITRYLDNAREILSTKANKEGQFYKDIKYVQMASGTAYNAALMIADEYLRKKEGAKFTKPNSIDEYRVRLNKHNKTLLAYLNRAYDMLHLAGYYHGTPSVGTIKQGMEAAQKMLALIEH
OUTPUT: soluble

Kindly review the next sequence as well.
INPUT: Value lookup for soluble on expression in E. coli; key = MGSDKIHHHHHHMTIGLSCNALKYGGGLERYAIDLARGLADAGVRPLVFARSFDSSVPEYQCVEPRRINVSFLPGKCRDAWFSWRLRAARRAAPVDVLIGCNRVDSSDIAICGGTHLGFLDAIGRMPTFSDRRQIALERRQYARARFVVAHSMLMRDELRRFYGLSDDKIRVLFPPVDAARFTPVDAVRRAELRTRFGFADDEVVLLFPSSSHERKGLPLIEAILRDAGPRVVVAVAGRPPERTSERLRYVGYVKDIEDGYRAADFTILASKYEPFGLVGVESVMCGTPVILPSNIGCCDAIAPSAKLVFAPGDAAGLRGMLDEAVRRVRAGAVRVESGAAARAAIQYDPSVARHVAQLLDLAAEAASDRRNGGR
OUTPUT: not soluble

----------
# test name: soluble on expression in E. coli; label from the status in PepcDB or PDB records
measured property: soluble on expression in E. coli

INPUT: So what does the record say about soluble on expression in E. coli for MSQTEPPEDLMQYEAMAQDALRGVVKAALKKAAAPGGLPEPHHLYITFKTKAAGVSGPQDLLSKYPDEMTIVLQHQYWDLAPGETFFSVTLKFGGQPKRLSVPYAALTRFYDPSVQFALQFSAPEIIEDEPEPDPEPEDKANQGASGDEGPKIVSLDQFRKKLEHHHHHH ?
OUTPUT: soluble

INPUT: # input sequence: QESVEDSLATVKVVLIPVGQEIVIPFKVDTILKYLKDHFSHLLGIPHSVLQIRYSGKILKNNETLVQHGVKPQEIVQVEIFSTNPDLYPVRRIDGLTDVSQIITV ; wanted: its soluble on expression in E. coli
OUTPUT: soluble

INPUT: Give its soluble on expression in E. coli value. Item: MTSVIPEQRNNPFYRDSATIASSDHTERGEWVTQAKCRNGDPDALFVRGAAQRRAAAICRHCPVAMQCCADALDNKVEFGVWGGLTERQRRALLRKKPHITNWAEYLAQGGEIAGV
OUTPUT: not soluble

INPUT: For the sequence shown here, MGSDKIHHHHHHADGRYIEVTGTSEIEIVPDRIHYIIEIREYFEEEFDGRSKPEEYRTKISLDRIEQGLREVLHDAGISPNAVRTQEIGDYWRKQGQDFLVAKTFDITLLDFKQIDEILKRMDTKGIHTMRIGELENKDMLSYHQKGKIAALKAAQRKASYLVEALGKKLGPVIRIVEDEAGSSLPFSQSNVLSSSVVSFDSFRTIKKKYSMLVRFEIAD , give the reported soluble on expression in E. coli.
OUTPUT: not soluble

INPUT: Record request: soluble on expression in E. coli value, item MGSDKIHHHHHHMCTVQSNITSHVKKLEEELGVILLNRHNPVTLTNAGHQLHSYAVQMIALHNKAKTIFREGDIDPNETIRLGSMETTAAIRLPQLLNECMQQHPNLPLELQTHPTGYLLNAVQQGEVDCAFVASKYVIPELYSFPVWQEQLVLVCPKQQIDFPDIATLAKTRFIAFRQGCSYRHAIELFLNDHSVPPSQIMEMGSLDGIVSCVELGVGFALLPKSYLNKVADKVSLSCFEINTESAHFTTYLVAQPPETWGSNLKQFICFIEQQFIQKCA
OUTPUT: not soluble

INPUT: Fill in the blank: the reported soluble on expression in E. coli of GSHMLGERLGIPAPRRIEAFDNSNIYGADPVSALVVFLDGKPAKKEYRKYKVKTVAGPNDYETMREVVRRRYTRVLKEGLPLPDLIIIDGGKGHLSAVRDVLENELGLDVPLAGLAKDEKHRTSELLAGDPPDVVPLDRQSQEFYLLQRIQDEVHRFAVMFHRKTRQKTMFHSVLDDIPGVGEKRKKALLNYFGSVKKMKEATVEELQRANIPRAVAEKIYEKLHE is ____.
OUTPUT: soluble

New cases:
INPUT: Entry GGKFVQAWSQFPAGKWGVEPNPVSVVPTHGEVLNDGKVKEVPWVLELTPMPVSGTTVGKDGINPDEPMTLETVDRFAREIGFKGRYQLNLPKGEDGVWTLSQDSMSYDMISPFADRTVHIDQYSGKILADIRFDDYNPFGKFMAASIALHMGTLG has what soluble on expression in E. coli?
OUTPUT: not soluble

INPUT: Request the reported soluble on expression in E. coli associated with MGRSPCFFKSFKGKLHKDRSPDPSTLASPHPSTEARRPVEAGSAEWTWGWMKRLPPASLSPGIAMSCYSGDSMLQKYKVKNAYRLHWQGREEPGASTFASLVFQ
OUTPUT: soluble

INPUT: Please give the measured soluble on expression in E. coli for this sequence: QQMQAESGFVQHVGFKCDNCGIEPIQGVRWHCQDCPPEMSLDFCDSCSDCLHETDIHKEDHQLEPIYRS
OUTPUT: soluble

The reported numbers originate from the DeepSol protein solubility set.
